Measured melting point values are reported for all entries that follow.

CCCOc1nsc(N=CN(C)C)c1C#N    117 to 118 °C
O=C(OCc1ccccc1)c1ccc2cc(OCc3ccccc3)ccc2c1    97 to 98 °C

Return reported melting point; argument: CCc1nc2c(N)nc3cccnc3c2n1CC1(O)CCN(C(=O)N2CCOCC2)CC1
> 255 °C

Return reported melting point; argument: NC(=O)c1cn(-c2ccccc2)nc1-c1ccc([N+](=O)[O-])o1
236 to 238 °C

* * *

Measurement type: melting point

COc1ccc(CN2Cc3cncn3C(c3ccc(-c4ccc(Cl)cc4)cc3)C2=O)cc1 (centres undefined)    270 to 273 °C
CCCCn1ncc(/C=C(\Cc2cc3c(cc2OC)CCO3)C(=O)O)c1-c1ccc(Cl)cc1OCc1ccccc1C(=O)O    116 to 118 °C
CCN(c1cccc(-c2ccnc3c([N+](=O)[O-])cnn23)c1)S(=O)(=O)c1ccc(OC)cc1    209 to 211 °C
CCCCCCCCCCCCS(=O)(=O)c1cc(C(=O)O)c([N+](=O)[O-])c(S(=O)(=O)CCCCCCCCCCCC)c1    153 to 154 °C
CCc1c(-c2ccc(O)cc2)c2c(CN(C)C)cc3cccc1n32    176 to 178 °C

// below: melting point requested for another compound
Return reported melting point; argument: NC[C@H]1COc2ccc(F)c(-c3ccc(Cl)cc3Cl)c2O1
65 °C
